B1: mRNA-splicing (parent)
chain: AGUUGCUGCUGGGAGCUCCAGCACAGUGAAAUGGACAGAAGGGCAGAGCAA

Variants of: B1
Test: exon inclusion enrichment index; higher = more inclusion; WT1 exon 5 minigene, HEK293
This section presents variants with their documented exon inclusion enrichment index values.
Answer field: number only, no words.

Completed entries (count: 3):
[[record]]
input_sequence = "AGUUCUUCUCGGGAGCUCCAGCAUCGUGAAAUGGACAGAAGGGCAGAGCAA [G5C C6U G8C C9U U10C C24U A25C]"
endpoint = "exon inclusion enrichment index"
test_result = 3.44

[[record]]
input_sequence = "AGUUCUUCUCGGGAGCUCCAGCACAGUGAAAAAGACAGAAGGGCAGAGCAA [G5C C6U G8C C9U U10C U32A G33A]"
endpoint = "exon inclusion enrichment index"
test_result = 0.758

[[record]]
input_sequence = "AGUUCGCGCCGGGAGCUCCAGCACAGUGAAAUGGACAGAAGAUCAGAGCAA [G5C C6G U7C U10C G42A G43U]"
endpoint = "exon inclusion enrichment index"
test_result = 5.36


# input variant: AGUUAUACAUGGGAGCUCCAGCACAGUGAAAUGGACAGAAGGGCAGAGCAA [G5A C6U U7A G8C C9A] ; wanted: its exon inclusion enrichment index
0.286

// returns reported exon inclusion enrichment index for input AGUUCUUAGCGGGAGCUCCAGCACAGUGAAAUGGACAGAAGGGCAGAGCAA [G5C C6U G8A C9G U10C]
0.184

Query (variant): AGUUCACACAGGGAGCUCCAGCACAGUGAAAUGGACAGAAGGGAAGAGCAA [G5C C6A U7C G8A U10A C44A] ; field requested: exon inclusion enrichment index
0.477

// exon inclusion enrichment index lookup, key: AGUUAGGGAUGGGAUGUCCAGCACAGUGAAAUGGACAGAAGGGCAGAGCAA [G5A C6G U7G C9A G15U C16G]
0.00106

Quick one: exon inclusion enrichment index of AGUUAUAUAUGGGAGCUCCAGCACAGUGAAAUGGACAGAAGGGCAGGUCAA [G5A C6U U7A G8U C9A A47G G48U] ?
0.00228

Form field: reported exon inclusion enrichment index of AGUUAUAUAUGGGAGCUCCAGCACAGAGAAAUGGACAGAAGGGCAGAGCAA [G5A C6U U7A G8U C9A U27A]
0.0803

Requested read-out: exon inclusion enrichment index. Entry: AGUUAUAUAUGGGAGCUCCAGCACACAGAAAUGGACAGAAGGGCAGAGCAA [G5A C6U U7A G8U C9A G26C U27A]
0.0751

Any idea what exon inclusion enrichment index was measured for AGUUCACACAGGGAGCUCACGCACAGUGAAAUGGACAGAAGGGCAGAGCAA [G5C C6A U7C G8A U10A C19A A20C] ?
0.0294

May I ask what exon inclusion enrichment index has been recorded for AGUUGCUGCUGGGAGCUCCAGCACAGUGAAAUGGACUAAAGGGCAGAGCAA [A37U G38A] ?
0.0367
